Experiment: yeast display, Sf9 membrane polyspecificity reagent, FACS + sequencing; frameworks hold sequencing errors
measured-parameter: polyreactivity (PSR sort gate)

biosequence	measured-parameter	observed-value
QVQLVESGGGKVQAGGSLRLSCAASGYTFKYYTMGWYRQAPGKERELLAAITRSGGSTYYADSVKGRFTISRDTAKNTVYLQMNSLKPEDTAFYYCAARASYKQPVSFDYWGQGTQVTVSS	polyreactivity (PSR sort gate)	high polyreactivity
QVQLVESGGGLVQAGGSLRLSCAASGFTFDQNAMGWYRQAPGKERELVAAISVGGGSTYYADSVKGRFTISRDNAKNTVYLQMNSLKPEDTAVYYCAASYVYPASFHYYYWGQGTQVTVSS	polyreactivity (PSR sort gate)	high polyreactivity
QVQLVESGGGLVQAGGSLRLSCAASGRTIKYYAMGWYRQAPGKERQLVAVISWSGGRTYYADSVKGRFTISRDNAKNTVYLQMNSLKPEDTAVYYCNAVYPYYYLLKRYKEGYWGLGTQVTVSS	polyreactivity (PSR sort gate)	high polyreactivity
QVQLVESGGGLVQAGGSLRLSCAASGSIFPYYAMGGYRQAAGKERELVATITSRGGSTDYADYVKGRFTISRDNAKNTVYLQMNSLKREDTAVYYCAKEYRYYRRRYDYWGQGTQVTVSS	polyreactivity (PSR sort gate)	high polyreactivity
QVQLVESGGGLVQAGGSLRLSCAASGRIFYYNAMGWYRQAPGKERELVAAISWDGGSTYYADSVKGRFTISRDNAKNTVYLQMNSLKAEDTAVYYCAVDLYGTWYPTWFNYWGQGTQVTVSS	polyreactivity (PSR sort gate)	low polyreactivity
QVQLVESGGGLVQAGGSLRLSCAASGRIFYLYTMGWYRQAPGKERELVAAITRAGRTYYADSVKGRFTISRDNAKNTVYLQMNSLKPEDTAVYYCAAAFLSRVQGYDSWGQGTQVTVSS	polyreactivity (PSR sort gate)	high polyreactivity
QVQLVESGGGLVQAGGSLRLSCAASGRIFVGYAMGWYRQAPGKERELVAAISARGGSTYYADSVKGRFTISRDNAKNTVYLQMNSLKPEDTAVYYCAADEASSRGYYDYDYWGQGTQVTVSS	polyreactivity (PSR sort gate)	low polyreactivity
QVLLQESGGGLVQAGGSLRLGCAASGTISHAYYMGRYHQAPGKEREFVAAITYGTNTYYADSVKGRFTISRDNAKNTVYLQMNSLKPEDTAVYYCSATAGYNGAHDYWGQGTQVTVSS	polyreactivity (PSR sort gate)	low polyreactivity
QVQLVESGGGLVQAGGSLSLSCAASGYIFSSNTMGWYRQAPGKERELVAGITASATITYYADSVKGRFTISRDNAKNTVYLQMNSLKPEDTAVYYCAADPVLGVFKFEYWGQGTQVTVSS	polyreactivity (PSR sort gate)	low polyreactivity
QVQLVESGGGLVQAGGSLRLTFAASGRTFGYYAMGWSRQAPGKEREWVAAISWSGTSTYYADSVKGRFTISRDNAKNTVYLQLNSLKPEDTAVYYCNAVNVAVQWTSRYYYWGHGTQVTVSS	polyreactivity (PSR sort gate)	high polyreactivity

Which polyreactivity (PSR sort gate) value belongs to QVQLVESGGGLVQAGGSLRLSCAASGSIFGSYAMGWYRQAPGKERELVAAITSGGSTHYADSVKGRFTISRDNAKNTVYLQMNSLKPEDTAVYYCNAQALRLFWRYDYWGLGTQVTVSS ?
low polyreactivity

###

Experiment: yeast display, Sf9 membrane polyspecificity reagent, FACS + sequencing; frameworks hold sequencing errors
measured-parameter: polyreactivity (PSR sort gate)

biosequence	measured-parameter	observed-value
QVQLVESGGGLVQAGGSLRLSCASSGGISYYYYAMGWYRQAPGKERELVAAISSDDDTYYADSVKGRFTISRDNAKNTVYLQMNSLKPEDTAVYYCAAEYDVVGPSIYGYLFYYWGQGTQVTVSS	polyreactivity (PSR sort gate)	high polyreactivity
QVQLVESGGGLVQAGGSLRLSCAASGRTFRYYAMGWYRQAPGKESEFVARISSSGSSTYSADSVKGRFTISRDNAKNTVYLQMNSLKPEDTAVYYCAKTVLPYGGSNGLKWYYYWGQGTQVTVSS	polyreactivity (PSR sort gate)	high polyreactivity

###

Assay: yeast display, Sf9 membrane polyspecificity reagent, FACS + sequencing; frameworks hold sequencing errors
measured-parameter: polyreactivity (PSR sort gate)

Examples with their reported polyreactivity (PSR sort gate) follow.
biosequence	polyreactivity (PSR sort gate)
QVHLVESRGGLVQAGGSLRLSCAASVFTFRYYAMGWYRQAPGKERELVAAITSDGITNYADSVKGRFTISRDNAKNTVYLQMNSLKPEDTAVYYCAAVGWFYGIRLEYWGQGTQLTVSS	high polyreactivity
QVHLVESGGGLVQAGGSLRLSCAASGFLFRTYAMGWYRPGPGKERELVDAISNDANTKYADSVKGRFTISRDNAKNTVYLQMNSLKPEDTAVYYGAAKAIYRGRYLKIVKVGYWGQGTQVTVSS	high polyreactivity
QDQLVESGGGLVQAGGSLRLSCAASGYTFAYYAMGWYRQAPGKERELVARITSGGRTYYADSVKGRFTISRDNAKNTVYLQMNSLKPEDTAVYYCNAAWPFRYRRYDYWGQGTQVSVSS	high polyreactivity
QVQLQDSCGGLVQAGGSLRLNCATSGTIFVLWYMGWYRQAPGKERELVATINHGANTYSADSVKGRFTINRDNGNSTVYLQMNSLQPEDTAVYYCAVYAIIVWGLGYWGQGTQVTVSS	high polyreactivity
QVQLVESCGGLVQAGGSLRLSCAASGSTFILYAMGWYRPAPGKERELVAAISWSTGITYYADSVKGRFTISRDNAKNTVYLPMNSLKPEDTAVYYCAADAWGYHDYDASYSTGYEYWGQGTQVTVSS	high polyreactivity

Continue with the sequence presented below.
Which polyreactivity (PSR sort gate) value belongs to QVQLVESVGGLVQAGGSLRLICAASGSTFPSYAMGWYRQAPGKEREVVAAINSGGGTNYADSVKGRFTISRDNAKYTVYLQMNSLKPEDTAVYYCAKSRYDYTKTEGGYWGQGTQVTVSS ?
low polyreactivity

###

Assay: yeast display, Sf9 membrane polyspecificity reagent, FACS + sequencing; frameworks hold sequencing errors
measured-parameter: polyreactivity (PSR sort gate)

biosequence	measured-parameter	observed-value
QVQLVESGGGLVQAGGSLRLSCDASGITLRTYSIGWYRQAPGKERELVAAISKSGDRTYYADSVKGRFTISRDNAKNTVYLQMNSLKPEDNAVYYCAKATNAQYLYDYWGQGTHVTVSS	polyreactivity (PSR sort gate)	low polyreactivity
QVQLVESGGGLVQAGGSLRLSCAASGRTFTVYAMGGSRQAPGKERELVAGIRRGDSTYYADSVKGRFTISRDNAKNSVDFQMNSLKPEDTAVYYCNARSSGRSYYYWGQGTQVTVSS	polyreactivity (PSR sort gate)	high polyreactivity
QVHLVETVGGLVKAGGSLRLSFAASGSIFTSNDMGWYRQEPGKERELVAAISSGGRTYYADSVKGRFTISRDNAKNTVYLQMNSLKPEYTAVYYCAVDPHLYALRGAVYYWGQGTQVTVSS	polyreactivity (PSR sort gate)	low polyreactivity
QVQLVESGGGLVQAGGSLRLSCAASGFTFWTYAMGWYRQAPGKERELVAAIDSGGSTYYADSVKGRFTISRDNAKNTVFLQMNSLKPEDTAVYYCIAGPSVTSGYDYDYWGQGTQVTVSS	polyreactivity (PSR sort gate)	low polyreactivity
QVQLVESGGGLVQAGGSLRLSCAASGSIFSKYAMGRYRPAPGKERELVAAISRRGGDTYYADSVKGRFTISRDNAKNTVYLQMNSLKPEDTAVYYCAAYQYYLYDYWGQGTQVTVSS	polyreactivity (PSR sort gate)	high polyreactivity

Which polyreactivity (PSR sort gate) value belongs to QVQLVESGGVLVQAGGSLRLSCAASGLTIQTNAMGWYREAPVKERELVAAISRRGSSTYYADSVKGRFTISRDNAKNTVYLQMISLKPEDTAVYYCATGGVLYPYWRGKRYGYWGQGTQVTVSS ?
high polyreactivity

###

Assay: yeast display, Sf9 membrane polyspecificity reagent, FACS + sequencing; frameworks hold sequencing errors
measured-parameter: polyreactivity (PSR sort gate)

Examples with their reported polyreactivity (PSR sort gate) follow.
biosequence	polyreactivity (PSR sort gate)
QVQLVESGGGLVQAGGSLRLSCAASGLTFAINTMGWYRQAPGKERELVAAITGSGGSTYYADSVKGRFTISRDNAKNTVYLQMNSLKPEDTAVYYCAAELLYVQGYAMDYWGQGTQVTVSS	low polyreactivity
QVQLVESGGGLVQAGGSLSLSCASSANIFGVYAKGWYRQPPGKERELVAAIRYSTVSTYYADSVKGRFTISRDNAKNTVYLQLHSLKPEDTAVFYCAAQRRLYLPGHYYYWGQGTQVTVSS	high polyreactivity
QVQLVESGGGLVQAGGSLRLSCAASGSTFGAYVMGWSRQAPGKERELVAGITYSGGTTYYAYSVKGRFTISRDNSKNTVYLQMNILKPEDTAVYYCNVSQHYSRRLKKWQMDYWGQGTQVTVSS	high polyreactivity
QVQLVESGGGLVQAGGSLRLSCAASGRTFPYYAMGWYRQAPGKERELVAAISKRGGTTYYADSVKGRFTISRDNAKNTVYLQMNSLKPEDTAVYYCAKDSAYGWVAYDYWGQGTQVTVSS	high polyreactivity

Continue with the sequence presented below.
Which polyreactivity (PSR sort gate) value belongs to QVQLVESGGGLVQAGGSLRLSCAASGFTFDENAMGWYRQAPGINYSGASTYYADSVMGRFTFSRDNAKNTVYLQMNSLKPEDTAVYYCAAEVVAQMNYWGQGTQVTVSS ?
low polyreactivity
